B1: library; a variant is named by its letters at N, in order (parent)
chain: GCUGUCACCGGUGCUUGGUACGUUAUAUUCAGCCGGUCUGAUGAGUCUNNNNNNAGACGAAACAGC

# Variants of: B1
# Assay: FACS-Seq fitted mean relative fluorescence mCherry/BFP without ligand (log10 relative fluorescence); HEK293T overexpressing SLC46A1; higher = higher reporter protein expression
# Condition set: without (6R,S)-folinic acid; ligand present: no
Below, each entry is listed with its recorded FACS-Seq fitted mean (log10).
Measured property: FACS-Seq fitted mean (log10)

1. GCUGUCACCGGUGCUUGGUACGUUAUAUUCAGCCGGUCUGAUGAGUCUGGGAAGAGACGAAACAGC [GGGAAG]: 0.485
2. GCUGUCACCGGUGCUUGGUACGUUAUAUUCAGCCGGUCUGAUGAGUCUGUGCUGAGACGAAACAGC [GUGCUG]: -0.457
3. GCUGUCACCGGUGCUUGGUACGUUAUAUUCAGCCGGUCUGAUGAGUCUACAACAAGACGAAACAGC [ACAACA]: 0.197
4. GCUGUCACCGGUGCUUGGUACGUUAUAUUCAGCCGGUCUGAUGAGUCUAGCACUAGACGAAACAGC [AGCACU]: 0.282
5. GCUGUCACCGGUGCUUGGUACGUUAUAUUCAGCCGGUCUGAUGAGUCUCAGAUAAGACGAAACAGC [CAGAUA]: 0.631
6. GCUGUCACCGGUGCUUGGUACGUUAUAUUCAGCCGGUCUGAUGAGUCUGUUAUAAGACGAAACAGC [GUUAUA]: -0.102
7. GCUGUCACCGGUGCUUGGUACGUUAUAUUCAGCCGGUCUGAUGAGUCUAUAUUGAGACGAAACAGC [AUAUUG]: 0.176
8. GCUGUCACCGGUGCUUGGUACGUUAUAUUCAGCCGGUCUGAUGAGUCUAUUUGGAGACGAAACAGC [AUUUGG]: 0.293
9. GCUGUCACCGGUGCUUGGUACGUUAUAUUCAGCCGGUCUGAUGAGUCUUCUUGGAGACGAAACAGC [UCUUGG]: 0.272
10. GCUGUCACCGGUGCUUGGUACGUUAUAUUCAGCCGGUCUGAUGAGUCUACAGAUAGACGAAACAGC [ACAGAU]: -0.89
11. GCUGUCACCGGUGCUUGGUACGUUAUAUUCAGCCGGUCUGAUGAGUCUGGUAUAAGACGAAACAGC [GGUAUA]: 0.316
12. GCUGUCACCGGUGCUUGGUACGUUAUAUUCAGCCGGUCUGAUGAGUCUUUUGGAAGACGAAACAGC [UUUGGA]: 0.333
13. GCUGUCACCGGUGCUUGGUACGUUAUAUUCAGCCGGUCUGAUGAGUCUGCUCUGAGACGAAACAGC [GCUCUG]: 0.433
14. GCUGUCACCGGUGCUUGGUACGUUAUAUUCAGCCGGUCUGAUGAGUCUCUUUUCAGACGAAACAGC [CUUUUC]: 0.721
15. GCUGUCACCGGUGCUUGGUACGUUAUAUUCAGCCGGUCUGAUGAGUCUAGCAAAAGACGAAACAGC [AGCAAA]: 0.455
16. GCUGUCACCGGUGCUUGGUACGUUAUAUUCAGCCGGUCUGAUGAGUCUGAGCCUAGACGAAACAGC [GAGCCU]: 0.306
17. GCUGUCACCGGUGCUUGGUACGUUAUAUUCAGCCGGUCUGAUGAGUCUUAACUAAGACGAAACAGC [UAACUA]: 0.248
18. GCUGUCACCGGUGCUUGGUACGUUAUAUUCAGCCGGUCUGAUGAGUCUAUAAGGAGACGAAACAGC [AUAAGG]: 0.0495
19. GCUGUCACCGGUGCUUGGUACGUUAUAUUCAGCCGGUCUGAUGAGUCUUUAAGAAGACGAAACAGC [UUAAGA]: 0.166
20. GCUGUCACCGGUGCUUGGUACGUUAUAUUCAGCCGGUCUGAUGAGUCUUGACGAAGACGAAACAGC [UGACGA]: 0.311
21. GCUGUCACCGGUGCUUGGUACGUUAUAUUCAGCCGGUCUGAUGAGUCUGGGUAAAGACGAAACAGC [GGGUAA]: 0.299
22. GCUGUCACCGGUGCUUGGUACGUUAUAUUCAGCCGGUCUGAUGAGUCUAUAGCCAGACGAAACAGC [AUAGCC]: 0.385
23. GCUGUCACCGGUGCUUGGUACGUUAUAUUCAGCCGGUCUGAUGAGUCUUUUAAGAGACGAAACAGC [UUUAAG]: 0.386
24. GCUGUCACCGGUGCUUGGUACGUUAUAUUCAGCCGGUCUGAUGAGUCUGACAUUAGACGAAACAGC [GACAUU]: 0.457
25. GCUGUCACCGGUGCUUGGUACGUUAUAUUCAGCCGGUCUGAUGAGUCUUAGCCUAGACGAAACAGC [UAGCCU]: 0.641
26. GCUGUCACCGGUGCUUGGUACGUUAUAUUCAGCCGGUCUGAUGAGUCUAACAAUAGACGAAACAGC [AACAAU]: 0.338
27. GCUGUCACCGGUGCUUGGUACGUUAUAUUCAGCCGGUCUGAUGAGUCUGUAUUUAGACGAAACAGC [GUAUUU]: 0.142
28. GCUGUCACCGGUGCUUGGUACGUUAUAUUCAGCCGGUCUGAUGAGUCUAGGUCCAGACGAAACAGC [AGGUCC]: 0.442
29. GCUGUCACCGGUGCUUGGUACGUUAUAUUCAGCCGGUCUGAUGAGUCUUCGUACAGACGAAACAGC [UCGUAC]: 0.373
30. GCUGUCACCGGUGCUUGGUACGUUAUAUUCAGCCGGUCUGAUGAGUCUUAGAGGAGACGAAACAGC [UAGAGG]: 0.0109
31. GCUGUCACCGGUGCUUGGUACGUUAUAUUCAGCCGGUCUGAUGAGUCUUACGAUAGACGAAACAGC [UACGAU]: 0.175
32. GCUGUCACCGGUGCUUGGUACGUUAUAUUCAGCCGGUCUGAUGAGUCUAUGUGGAGACGAAACAGC [AUGUGG]: 0.0386
33. GCUGUCACCGGUGCUUGGUACGUUAUAUUCAGCCGGUCUGAUGAGUCUAUACUCAGACGAAACAGC [AUACUC]: 0.248
34. GCUGUCACCGGUGCUUGGUACGUUAUAUUCAGCCGGUCUGAUGAGUCUAUGAUGAGACGAAACAGC [AUGAUG]: 0.408
35. GCUGUCACCGGUGCUUGGUACGUUAUAUUCAGCCGGUCUGAUGAGUCUGAACCUAGACGAAACAGC [GAACCU]: -0.507
36. GCUGUCACCGGUGCUUGGUACGUUAUAUUCAGCCGGUCUGAUGAGUCUUGUCUGAGACGAAACAGC [UGUCUG]: 0.171
37. GCUGUCACCGGUGCUUGGUACGUUAUAUUCAGCCGGUCUGAUGAGUCUUGUGCGAGACGAAACAGC [UGUGCG]: 0.0533
38. GCUGUCACCGGUGCUUGGUACGUUAUAUUCAGCCGGUCUGAUGAGUCUUUCCGAAGACGAAACAGC [UUCCGA]: -0.0446
39. GCUGUCACCGGUGCUUGGUACGUUAUAUUCAGCCGGUCUGAUGAGUCUUCCAGGAGACGAAACAGC [UCCAGG]: 0.587
40. GCUGUCACCGGUGCUUGGUACGUUAUAUUCAGCCGGUCUGAUGAGUCUGUUCGGAGACGAAACAGC [GUUCGG]: 0.155
41. GCUGUCACCGGUGCUUGGUACGUUAUAUUCAGCCGGUCUGAUGAGUCUGUAAUGAGACGAAACAGC [GUAAUG]: 0.394
42. GCUGUCACCGGUGCUUGGUACGUUAUAUUCAGCCGGUCUGAUGAGUCUUGCGACAGACGAAACAGC [UGCGAC]: 0.375
43. GCUGUCACCGGUGCUUGGUACGUUAUAUUCAGCCGGUCUGAUGAGUCUUUUCAGAGACGAAACAGC [UUUCAG]: 0.263
44. GCUGUCACCGGUGCUUGGUACGUUAUAUUCAGCCGGUCUGAUGAGUCUGCAGGAAGACGAAACAGC [GCAGGA]: 0.7
45. GCUGUCACCGGUGCUUGGUACGUUAUAUUCAGCCGGUCUGAUGAGUCUCCUACAAGACGAAACAGC [CCUACA]: -0.221
46. GCUGUCACCGGUGCUUGGUACGUUAUAUUCAGCCGGUCUGAUGAGUCUCCACAAAGACGAAACAGC [CCACAA]: 0.496
